experimental-system: Angiotensin II receptor (AT-1) type-1 (Rattus norvegicus) (UniProt P29089+P25095)
protocol-text: Inhibition of pressor response induced by infusion of AII in rats when dose is administered intravenously
Assay type: functional
parameter: ID50 (mg/kg)

Sample records with ID50:
Per the record, `CCCCc1nc(SC)c(C(=O)O)n1Cc1ccc(-c2ccccc2S(=O)(=O)NC(=O)OCC(C)C)cc1` has ID50 of 0.15

Per the record, `CCCCc1nc(SCC(F)(F)F)c(C(=O)O)n1Cc1ccc(-c2ccccc2S(=O)(=O)NC(=O)NCCC)cc1` has ID50 of 0.8

Per the record, `CCCCc1nc(SC)c(C(=O)O)n1Cc1ccc(-c2ccccc2S(=O)(=O)NS(=O)(=O)C(F)(F)F)cc1` has ID50 of 1.45

Per the record, `CCCCc1nc(Sc2ccccc2)c(C(=O)O)n1Cc1ccc(-c2ccccc2S(=O)(=O)NC(=O)NCCC)cc1` has ID50 of 0.67

P: CCCCc1nc(SCC(F)(F)C(F)(F)CO)c(C(=O)O)n1Cc1ccc(-c2ccccc2S(=O)(=O)NC(=O)NCCC)cc1
Q: CCCCc1nc([S+](C)[O-])c(C(=O)O)n1Cc1ccc(-c2ccccc2S(=O)(=O)NC(=O)NCCC)cc1 (stereo not drawn)
R: CCCCNC(=O)NS(=O)(=O)c1ccccc1-c1ccc(Cn2c(CCCC)nc(SC)c2C(=O)O)cc1
Sort (3 compounds) by ID50: min first. Answer with the labels in sequence, matching the requested order.
R, Q, P
(R: 0.09 mg/kg, Q: 0.14 mg/kg, P: 0.83 mg/kg)

// data source = ChEMBL document CHEMBL1128415
